Readings of cAMP EMax(obs.) for the listed binders
- tested system: T1, wild-type human PTH/PTHrP receptor (hP1R-WT) (human, UniProt Q03431 27-593)
- T1 sequence (looked up): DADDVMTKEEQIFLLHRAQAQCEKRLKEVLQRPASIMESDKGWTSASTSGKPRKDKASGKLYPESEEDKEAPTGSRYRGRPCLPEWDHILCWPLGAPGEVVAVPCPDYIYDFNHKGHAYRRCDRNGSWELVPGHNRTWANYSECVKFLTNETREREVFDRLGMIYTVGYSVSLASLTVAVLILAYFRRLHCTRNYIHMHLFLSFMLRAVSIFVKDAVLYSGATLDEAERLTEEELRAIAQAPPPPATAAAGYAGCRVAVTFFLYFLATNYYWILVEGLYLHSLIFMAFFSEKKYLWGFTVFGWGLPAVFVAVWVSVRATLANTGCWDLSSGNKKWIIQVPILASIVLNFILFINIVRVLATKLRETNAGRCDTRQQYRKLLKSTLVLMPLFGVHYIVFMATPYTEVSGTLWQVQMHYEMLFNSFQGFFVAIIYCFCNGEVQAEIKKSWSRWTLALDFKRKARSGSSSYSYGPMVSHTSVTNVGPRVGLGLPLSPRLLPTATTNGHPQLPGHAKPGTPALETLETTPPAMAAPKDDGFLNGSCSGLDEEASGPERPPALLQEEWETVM
- test summary: cell-based or functional assay
Square brackets hold non-standard residues; d marks the D form. Ends that are not written are not given here. hArg = N=C(N)NCCCC[C@H](N)C(=O)O; Aib = CC(C)(N)C(=O)O
Lab note: write values as number then unit, every time.

| binder | recorded value |
| --- | --- |
| AVAEIQLMHQ[hArg]AKW-NH2 (N-terminus assumed; SMILES CC[C@H](C)[C@H](NC(=O)[C@H](CCC(=O)O)NC(=O)[C@H](C)NC(=O)[C@@H](NC(=O)[C@H](C)N)C(C)C)C(=O)N[C@@H](CCC(N)=O)C(=O)N[C@@H](CC(C)C)C(=O)N[C@@H](CCSC)C(=O)N[C@@H](Cc1c[nH]cn1)C(=O)N[C@@H](CCC(N)=O)C(=O)N[C@@H](CCCCNC(=N)N)C(=O)N[C@@H](C)C(=O)N[C@@H](CCCCN)C(=O)N[C@@H](Cc1c[nH]c2ccccc12)C(N)=O, X = Har; also called [M]PTH(1-14); 621 [M]PTH(1-14)) [[Ala^3,12,Gln^10,Har^11,Trp^14]PTH(1-14)amide] | 240 pmole/well |
| AVSEIQLMHNLGKH-NH2 (also called 521 PTH(1-14)) [native PTH(1-14) (rat sequence, amide)] | 140 pmole/well |

Attention now shifts to the item below.
Give the measured cAMP EMax(obs.) of [Aib]V[Aib]EIQLMHQ[hArg]-NH2 (N-terminus assumed; SMILES CC[C@H](C)[C@H](NC(=O)[C@H](CCC(=O)O)NC(=O)C(C)(C)NC(=O)[C@@H](NC(=O)C(C)(C)N)C(C)C)C(=O)N[C@@H](CCC(N)=O)C(=O)N[C@@H](CC(C)C)C(=O)N[C@@H](CCSC)C(=O)N[C@@H](Cc1c[nH]cn1)C(=O)N[C@@H](CCC(N)=O)C(=O)N[C@@H](CCCCNC(=N)N)C(N)=O, also called 682 [Aib^1,3, M]PTH (1-11); [Aib^1,3,Gln^10,Har^11]PTH(1-11)) [[Aib^1,3,M]PTH(1-11)] .
190 pmole/well

Reference source: patent US20050026839A1
